# Target system: MAPK13 (human) (UniProt O15264)
# Sequence (O15264 whole entry, looked up): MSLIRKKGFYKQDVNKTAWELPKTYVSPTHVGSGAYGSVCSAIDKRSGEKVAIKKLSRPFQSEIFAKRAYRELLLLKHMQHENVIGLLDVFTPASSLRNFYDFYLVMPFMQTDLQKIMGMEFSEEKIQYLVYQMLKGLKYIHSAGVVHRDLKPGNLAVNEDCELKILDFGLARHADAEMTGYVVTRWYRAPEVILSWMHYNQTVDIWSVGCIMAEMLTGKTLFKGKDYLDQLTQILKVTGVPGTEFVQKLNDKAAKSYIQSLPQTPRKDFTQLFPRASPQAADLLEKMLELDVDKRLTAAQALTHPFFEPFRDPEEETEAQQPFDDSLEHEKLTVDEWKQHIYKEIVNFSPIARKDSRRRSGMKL
# Experiment description: Caliper, Mobility shift assay off-chip
# Cond: compound 1.0 µM
A collection of compounds and their measured inhibition
Recorded metric: inhibition (%)

Cn1cc(-c2cnc3ccc4ccc(CS(=O)(=O)CCc5ccccn5)cc4c(=O)c3c2)cn1 ... -7.1
CN(c1ccc2ccc3ncc(-c4cnn(C)c4)cc3c(=O)c2c1)S(=O)(=O)NCc1ccccn1 ... 9.8
O=C(CCc1ccc2ccc3ncc(C4CCNCC4)cc3c(=O)c2c1)NCc1ccccn1 ... 3.9
Cn1cc(-c2cnc3ccc4ccc(CS(N)(=O)=O)cc4c(=O)c3c2)cn1 ... -9.3

###

# Target system: MAPK14 (human)
# Experiment description: Caliper, Mobility shift assay off-chip
# Cond: compound 1.0 µM
Recorded metric: inhibition (%)

CN(c1ccc2ccc3ncc(-c4cnn(C)c4)cc3c(=O)c2c1)S(=O)(=O)NCc1ccccn1 ... 1.9
Cn1cc(-c2cnc3ccc4ccc(CS(=O)(=O)CCc5ccccn5)cc4c(=O)c3c2)cn1 ... -2.7
Cn1cc(-c2cnc3ccc4ccc(CS(N)(=O)=O)cc4c(=O)c3c2)cn1 ... 6.9
O=C(CCc1ccc2ccc3ncc(C4CCNCC4)cc3c(=O)c2c1)NCc1ccccn1 ... 5.1
Cn1cc(-c2cnc3ccc4ccc(CS(=O)(=O)NCC5CCCCN5)cc4c(=O)c3c2)cn1 (stereo not given) ... -2.7

###

Recorded inhibition, one value per entry.
# Target system: BRSK1 (human)
# Experiment description: Caliper, Mobility shift assay off-chip
# Cond: compound 0.1 µM
Recorded metric: inhibition (%)

O=C(CCc1ccc2ccc3ncc(C4CCNCC4)cc3c(=O)c2c1)NCc1ccccn1 ... -1.6
Cn1cc(-c2cnc3ccc4ccc(CS(=O)(=O)NC5CCCCC5)cc4c(=O)c3c2)cn1 ... -1.6
CN(c1ccc2ccc3ncc(-c4cnn(C)c4)cc3c(=O)c2c1)S(=O)(=O)NCc1ccccn1 ... 3.3
Cn1cc(-c2cnc3ccc4ccc(CS(N)(=O)=O)cc4c(=O)c3c2)cn1 ... 5.6
Cn1cc(-c2cnc3ccc4ccc(CS(=O)(=O)CCc5ccccn5)cc4c(=O)c3c2)cn1 ... -11.7
O=c1c2cc(CS(=O)(=O)NCc3ccccn3)ccc2ccc2ncc(C3CCNCC3)cc12 ... -7.5
Cn1cc(-c2cnc3ccc4ccc(CS(=O)(=O)NCC5CCCCN5)cc4c(=O)c3c2)cn1 (configuration not stated) ... 2

###

Consider the following compounds and their measured inhibition readings.
# Target system: UniProtKB Q13188
# Sequence (Q13188 whole entry, looked up): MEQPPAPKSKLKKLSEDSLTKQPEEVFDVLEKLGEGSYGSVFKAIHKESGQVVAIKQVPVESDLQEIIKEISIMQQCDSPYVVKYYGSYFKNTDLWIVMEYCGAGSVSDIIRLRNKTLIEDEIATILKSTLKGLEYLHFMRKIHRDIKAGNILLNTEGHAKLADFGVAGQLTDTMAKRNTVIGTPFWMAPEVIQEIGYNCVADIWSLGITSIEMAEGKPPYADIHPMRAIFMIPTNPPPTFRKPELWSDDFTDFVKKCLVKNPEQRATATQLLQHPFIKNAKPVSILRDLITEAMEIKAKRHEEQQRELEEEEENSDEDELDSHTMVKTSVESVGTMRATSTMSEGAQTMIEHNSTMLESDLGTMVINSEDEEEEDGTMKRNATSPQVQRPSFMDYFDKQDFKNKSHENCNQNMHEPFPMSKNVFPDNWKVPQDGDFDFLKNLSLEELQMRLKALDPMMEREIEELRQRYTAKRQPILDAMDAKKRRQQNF
# Experiment description: Caliper, Mobility shift assay off-chip
# Cond: compound 0.1 µM
Recorded metric: inhibition (%)

Cn1cc(-c2cnc3ccc4ccc(CS(=O)(=O)CCc5ccccn5)cc4c(=O)c3c2)cn1 ... 3.4
O=c1c2cc(CS(=O)(=O)NCc3ccccn3)ccc2ccc2ncc(C3CCNCC3)cc12 ... 0.6
Cn1cc(-c2cnc3ccc4ccc(CS(=O)(=O)NCC5CCCCN5)cc4c(=O)c3c2)cn1 (configuration not stated) ... -0.1
O=C(CCc1ccc2ccc3ncc(C4CCNCC4)cc3c(=O)c2c1)NCc1ccccn1 ... 1.9
Cn1cc(-c2cnc3ccc4ccc(CS(=O)(=O)NC5CCCCC5)cc4c(=O)c3c2)cn1 ... 17.7
CN(c1ccc2ccc3ncc(-c4cnn(C)c4)cc3c(=O)c2c1)S(=O)(=O)NCc1ccccn1 ... -6
Cn1cc(-c2cnc3ccc4ccc(CS(N)(=O)=O)cc4c(=O)c3c2)cn1 ... 4.4

###

Reported inhibition values for a set of compounds
# Tested on: ABL1 (human), P00519 [H396P]
# Experiment description: Caliper, Mobility shift assay off-chip
# Cond: compound 1.0 µM
Recorded metric: inhibition (%)

CN(c1ccc2ccc3ncc(-c4cnn(C)c4)cc3c(=O)c2c1)S(=O)(=O)NCc1ccccn1 ... 42.1
O=C(CCc1ccc2ccc3ncc(C4CCNCC4)cc3c(=O)c2c1)NCc1ccccn1 ... 1.1
Cn1cc(-c2cnc3ccc4ccc(CS(=O)(=O)CCc5ccccn5)cc4c(=O)c3c2)cn1 ... 13.9
Cn1cc(-c2cnc3ccc4ccc(CS(N)(=O)=O)cc4c(=O)c3c2)cn1 ... 9.4

###

# Target system: UniProt:Q8TDC3
# Sequence (Q8TDC3 whole entry, looked up): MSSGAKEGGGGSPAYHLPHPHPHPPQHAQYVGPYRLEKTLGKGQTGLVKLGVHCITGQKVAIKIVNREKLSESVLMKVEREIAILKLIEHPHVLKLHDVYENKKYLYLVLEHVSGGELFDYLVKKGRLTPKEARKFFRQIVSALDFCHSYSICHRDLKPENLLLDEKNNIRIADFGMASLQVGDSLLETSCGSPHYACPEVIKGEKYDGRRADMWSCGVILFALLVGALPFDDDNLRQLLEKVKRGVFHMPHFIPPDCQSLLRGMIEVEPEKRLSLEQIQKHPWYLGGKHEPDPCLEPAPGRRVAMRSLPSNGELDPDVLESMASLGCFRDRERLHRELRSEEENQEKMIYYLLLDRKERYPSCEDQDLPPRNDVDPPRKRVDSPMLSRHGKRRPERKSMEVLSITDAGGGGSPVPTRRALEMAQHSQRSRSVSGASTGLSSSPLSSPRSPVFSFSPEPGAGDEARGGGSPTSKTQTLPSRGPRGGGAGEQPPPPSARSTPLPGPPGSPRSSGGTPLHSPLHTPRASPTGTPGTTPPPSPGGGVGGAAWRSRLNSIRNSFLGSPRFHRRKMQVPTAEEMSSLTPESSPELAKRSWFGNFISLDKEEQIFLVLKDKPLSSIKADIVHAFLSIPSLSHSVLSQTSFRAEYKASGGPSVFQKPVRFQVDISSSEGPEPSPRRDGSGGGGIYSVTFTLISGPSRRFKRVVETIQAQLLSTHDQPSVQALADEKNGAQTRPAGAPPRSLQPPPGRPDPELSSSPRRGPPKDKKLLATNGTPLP
# Experiment description: Caliper, Mobility shift assay off-chip
# Cond: compound 1.0 µM
inhibition overview
Recorded metric: inhibition (%)

Cn1cc(-c2cnc3ccc4ccc(CS(=O)(=O)CCc5ccccn5)cc4c(=O)c3c2)cn1 ... 0.3
Cn1cc(-c2cnc3ccc4ccc(CS(N)(=O)=O)cc4c(=O)c3c2)cn1 ... 12.5
CN(c1ccc2ccc3ncc(-c4cnn(C)c4)cc3c(=O)c2c1)S(=O)(=O)NCc1ccccn1 ... 0.5
O=C(CCc1ccc2ccc3ncc(C4CCNCC4)cc3c(=O)c2c1)NCc1ccccn1 ... 1.6
Cn1cc(-c2cnc3ccc4ccc(CS(=O)(=O)NCC5CCCCN5)cc4c(=O)c3c2)cn1 (stereo not given) ... 5.2

###

# Target system: UniProt Q9HBY8
# Sequence (Q9HBY8 whole entry, looked up): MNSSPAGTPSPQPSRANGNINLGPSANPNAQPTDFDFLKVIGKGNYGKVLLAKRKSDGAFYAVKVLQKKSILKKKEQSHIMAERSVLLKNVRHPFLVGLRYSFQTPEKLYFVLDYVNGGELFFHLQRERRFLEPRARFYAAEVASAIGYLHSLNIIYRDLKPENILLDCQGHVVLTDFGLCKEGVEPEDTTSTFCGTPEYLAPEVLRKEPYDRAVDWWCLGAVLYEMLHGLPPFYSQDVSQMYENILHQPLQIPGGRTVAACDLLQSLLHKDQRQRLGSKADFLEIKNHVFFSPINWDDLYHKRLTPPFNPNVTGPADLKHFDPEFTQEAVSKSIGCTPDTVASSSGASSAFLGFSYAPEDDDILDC
# Experiment description: Caliper, Mobility shift assay off-chip
# Cond: compound 0.1 µM
inhibition by entry:
Recorded metric: inhibition (%)

CN(c1ccc2ccc3ncc(-c4cnn(C)c4)cc3c(=O)c2c1)S(=O)(=O)NCc1ccccn1 ... 1.8
Cn1cc(-c2cnc3ccc4ccc(CS(=O)(=O)CCc5ccccn5)cc4c(=O)c3c2)cn1 ... -0.4
Cn1cc(-c2cnc3ccc4ccc(CS(N)(=O)=O)cc4c(=O)c3c2)cn1 ... -0.9
O=C(CCc1ccc2ccc3ncc(C4CCNCC4)cc3c(=O)c2c1)NCc1ccccn1 ... -1.4
O=c1c2cc(CS(=O)(=O)NCc3ccccn3)ccc2ccc2ncc(C3CCNCC3)cc12 ... 4.7
Cn1cc(-c2cnc3ccc4ccc(CS(=O)(=O)NCC5CCCCN5)cc4c(=O)c3c2)cn1 (configuration not stated) ... -9
Cn1cc(-c2cnc3ccc4ccc(CS(=O)(=O)NC5CCCCC5)cc4c(=O)c3c2)cn1 ... -0.1

###

# Target system: INSR (human)
# Experiment description: Caliper, Mobility shift assay off-chip
# Cond: compound 1.0 µM
Recorded metric: inhibition (%)

O=C(CCc1ccc2ccc3ncc(C4CCNCC4)cc3c(=O)c2c1)NCc1ccccn1 ... 3.5
CN(c1ccc2ccc3ncc(-c4cnn(C)c4)cc3c(=O)c2c1)S(=O)(=O)NCc1ccccn1 ... -0.3
Cn1cc(-c2cnc3ccc4ccc(CS(N)(=O)=O)cc4c(=O)c3c2)cn1 ... 6.4
Cn1cc(-c2cnc3ccc4ccc(CS(=O)(=O)NCC5CCCCN5)cc4c(=O)c3c2)cn1 (stereo not given) ... -2
Cn1cc(-c2cnc3ccc4ccc(CS(=O)(=O)CCc5ccccn5)cc4c(=O)c3c2)cn1 ... 3.5

###

Consider the following compounds and their measured inhibition readings.
# Target system: PAK2 (human) (UniProt Q13177)
# Sequence (Q13177 whole entry, looked up): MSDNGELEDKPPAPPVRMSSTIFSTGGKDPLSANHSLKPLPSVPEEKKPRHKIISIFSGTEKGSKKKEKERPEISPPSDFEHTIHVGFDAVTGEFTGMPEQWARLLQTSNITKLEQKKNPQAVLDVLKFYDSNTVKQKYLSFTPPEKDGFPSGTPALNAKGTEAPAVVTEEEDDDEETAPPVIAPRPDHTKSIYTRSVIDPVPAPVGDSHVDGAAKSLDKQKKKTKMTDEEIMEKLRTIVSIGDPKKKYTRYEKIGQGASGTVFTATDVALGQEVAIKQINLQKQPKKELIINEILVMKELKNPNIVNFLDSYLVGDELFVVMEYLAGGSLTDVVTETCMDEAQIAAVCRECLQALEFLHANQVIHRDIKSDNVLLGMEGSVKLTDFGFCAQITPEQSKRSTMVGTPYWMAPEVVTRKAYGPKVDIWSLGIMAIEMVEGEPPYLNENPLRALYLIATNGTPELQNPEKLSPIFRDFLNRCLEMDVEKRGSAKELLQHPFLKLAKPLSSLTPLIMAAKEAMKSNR
# Experiment description: Caliper, Mobility shift assay off-chip
# Cond: compound 1.0 µM
Recorded metric: inhibition (%)

Cn1cc(-c2cnc3ccc4ccc(CS(=O)(=O)NCC5CCCCN5)cc4c(=O)c3c2)cn1 (stereo not given) ... 0.9
CN(c1ccc2ccc3ncc(-c4cnn(C)c4)cc3c(=O)c2c1)S(=O)(=O)NCc1ccccn1 ... 5.3
Cn1cc(-c2cnc3ccc4ccc(CS(N)(=O)=O)cc4c(=O)c3c2)cn1 ... 0.8
Cn1cc(-c2cnc3ccc4ccc(CS(=O)(=O)CCc5ccccn5)cc4c(=O)c3c2)cn1 ... -0.3
O=C(CCc1ccc2ccc3ncc(C4CCNCC4)cc3c(=O)c2c1)NCc1ccccn1 ... 13.1

###

# Target system: BMX (human)
# Experiment description: Caliper, Mobility shift assay off-chip
# Cond: compound 1.0 µM
Measured inhibition, listed per entry for reference.
Recorded metric: inhibition (%)

O=C(CCc1ccc2ccc3ncc(C4CCNCC4)cc3c(=O)c2c1)NCc1ccccn1 ... 3.2
Cn1cc(-c2cnc3ccc4ccc(CS(=O)(=O)CCc5ccccn5)cc4c(=O)c3c2)cn1 ... 8.8
CN(c1ccc2ccc3ncc(-c4cnn(C)c4)cc3c(=O)c2c1)S(=O)(=O)NCc1ccccn1 ... 8
Cn1cc(-c2cnc3ccc4ccc(CS(=O)(=O)NCC5CCCCN5)cc4c(=O)c3c2)cn1 (centres undefined) ... -2.8

###

# Target system: UniProt:Q04759
# Sequence (Q04759 whole entry, looked up): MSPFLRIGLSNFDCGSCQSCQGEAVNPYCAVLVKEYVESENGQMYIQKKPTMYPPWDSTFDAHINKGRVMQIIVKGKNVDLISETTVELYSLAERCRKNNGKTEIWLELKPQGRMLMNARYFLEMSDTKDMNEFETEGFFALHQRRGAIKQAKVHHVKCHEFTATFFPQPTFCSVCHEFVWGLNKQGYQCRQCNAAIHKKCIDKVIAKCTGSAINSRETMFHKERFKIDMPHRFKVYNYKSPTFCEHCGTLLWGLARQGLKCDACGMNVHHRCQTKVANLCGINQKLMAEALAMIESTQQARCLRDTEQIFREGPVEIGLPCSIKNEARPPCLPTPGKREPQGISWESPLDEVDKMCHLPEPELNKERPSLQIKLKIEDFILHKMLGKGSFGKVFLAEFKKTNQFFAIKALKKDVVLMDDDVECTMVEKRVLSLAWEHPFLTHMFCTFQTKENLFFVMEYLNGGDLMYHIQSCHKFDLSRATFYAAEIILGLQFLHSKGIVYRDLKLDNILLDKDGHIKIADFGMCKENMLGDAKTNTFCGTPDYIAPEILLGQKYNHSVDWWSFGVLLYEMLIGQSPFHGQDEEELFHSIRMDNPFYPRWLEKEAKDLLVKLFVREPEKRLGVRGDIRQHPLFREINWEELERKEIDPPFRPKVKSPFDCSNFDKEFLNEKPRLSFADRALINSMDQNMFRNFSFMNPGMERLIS
# Experiment description: Caliper, Mobility shift assay off-chip
# Cond: compound 0.1 µM
Entries annotated with measured inhibition
Recorded metric: inhibition (%)

CN(c1ccc2ccc3ncc(-c4cnn(C)c4)cc3c(=O)c2c1)S(=O)(=O)NCc1ccccn1 ... -2.9
O=c1c2cc(CS(=O)(=O)NCc3ccccn3)ccc2ccc2ncc(C3CCNCC3)cc12 ... -3.8
Cn1cc(-c2cnc3ccc4ccc(CS(=O)(=O)NC5CCCCC5)cc4c(=O)c3c2)cn1 ... -1.3
Cn1cc(-c2cnc3ccc4ccc(CS(=O)(=O)NCC5CCCCN5)cc4c(=O)c3c2)cn1 (configuration not stated) ... -15.1
Cn1cc(-c2cnc3ccc4ccc(CS(N)(=O)=O)cc4c(=O)c3c2)cn1 ... 5.2
O=C(CCc1ccc2ccc3ncc(C4CCNCC4)cc3c(=O)c2c1)NCc1ccccn1 ... 3.3
Cn1cc(-c2cnc3ccc4ccc(CS(=O)(=O)CCc5ccccn5)cc4c(=O)c3c2)cn1 ... -11.5

Reference source for all entries: the kinase profiling compilation of Christmann-Franck et al. (2016)
